FYI, the data here is from the supplement of paper PMC13380429.

# System: A549-ACE2
# assay-comment: drug-induced phospholipidosis relative to tamoxifen; higher = more phospholipidosis
# run-parameters: 10 µM; 48 h
Form field: drug-induced phospholipidosis (one value per entry).
The reply should contain only the number, in %.

[
  {
    "compound": "CCn1c(-c2nonc2N)nc2cncc(C(=O)N3CC[C@H](N)C3)c21",
    "uom": "%",
    "drug-induced phospholipidosis": -1.92
  }
]

Request: Which value of drug-induced phospholipidosis has been reported for `Clc1cc(Cl)c(OCC#CI)cc1Cl` in the records?
Response: 7.74

Request: Check `COc1cc2c(NC3CCN(C(C)C)CC3)nc(N3CCC(F)(F)CC3)nc2cc1OCCCN1CCCC1` too.
Response: 51.8

Request: Check OCc1cc(C(O)CNCCCCCCOCCCCc2ccccc2)ccc1O (centres undefined) too.
Response: 83.5

----------
Form field: cell viability (one value per entry).
# Tested on: Calu-3
# assay-comment: cell viability relative to DMSO; higher = less toxic
# run-parameters: 72 h; 1 nM
The reply should contain only the number, in %.

Look over these answered cases.
[
  {
    "compound": "CC(C)(C)c1cc(C(C)(C)C)c(NC(=O)c2c[nH]c3ccccc3c2=O)cc1O",
    "uom": "%",
    "cell viability": 97.2
  },
  {
    "compound": "C[C@H](CCC(=O)O)[C@H]1CC[C@H]2[C@@H]3CC[C@@H]4C[C@H](O)CC[C@]4(C)[C@H]3C[C@H](O)[C@]12C",
    "uom": "%",
    "cell viability": 103
  },
  {
    "compound": "CC(=O)O[C@]1(C(C)=O)CC[C@H]2[C@@H]3C=C(C)C4=CC(=O)CC[C@@H]4[C@H]3CC[C@@]21C [nomegestrol-acetate]",
    "uom": "%",
    "cell viability": 99
  },
  {
    "compound": "N#CSc1cc(SC#N)c(N)nc1N",
    "uom": "%",
    "cell viability": 109
  },
  {
    "compound": "N#Cc1nn(-c2c(Cl)cc(C(F)(F)F)cc2Cl)c(N)c1[S+]([O-])C(F)(F)F (stereo unspecified)",
    "uom": "%",
    "cell viability": 99.3
  }
]

Request: Which value of cell viability has been reported for `C=C[C@@]1(C)CC(=O)[C@]2(O)[C@@]3(C)[C@@H](O)CCC(C)(C)[C@@H]3[C@H](O)[C@H](OC(C)=O)[C@@]2(C)O1` in the records?
Response: 106

----------
# Tested on: Vero E6
# assay-comment: cell viability relative to DMSO; higher = less toxic
# run-parameters: 72 h; 100 nM
result-type: cell viability
Reply with the number and its unit after it.

Look over these answered cases.
[
  {
    "compound": "COc1ccc2c(c1)C(C(=O)N(Cc1ccc(N(C)C)cc1)c1ccc(C(C)C)cc1)CCC2 (stereo unspecified)",
    "assay-target": "Vero E6",
    "cell viability": "99.3%"
  },
  {
    "compound": "CC[C@H](CO)Nc1nc(NCc2ccc(-c3ccccn3)cc2)c2ncn(C(C)C)c2n1 [CR8-(R)]",
    "assay-target": "Vero E6",
    "cell viability": "85.8%"
  },
  {
    "compound": "CCCCCCCCCCCC(=O)O",
    "assay-target": "Vero E6",
    "cell viability": "101%"
  },
  {
    "compound": "Cc1cc2c(N3CCCC3)nc(N3CCCC3)nc2n1C",
    "assay-target": "Vero E6",
    "cell viability": "104%"
  }
]

Request: Which value of cell viability has been reported for `CN1CCN(C(=O)c2cc3cc(Cl)ccc3[nH]2)CC1` in the records?
Response: 98.6%

Request: Check `Cc1cc(O)c(C(C)C)cc1Cl` too.
Response: 93.7%
